System: E. coli ATCC 25922
Settings: ATCC 25922
Positions of bridges follow the written chain, without caps; N, C: chain ends. Non-standard residues stand in square brackets, D forms with d. Residues, ends and D or L forms follow the SMILES beside them. *: point of attachment. Benzoyl(4-OPh) = O=C(c1ccc(Oc2ccccc2)cc1)*; dDab = NCC[C@@H](N)C(=O)O; Dab = NCC[C@H](N)C(=O)O
Quantity Measured: MIC E. coli ATCC 25922 (µg/mL)
Reply numerically in µg/mL, unit not repeated.

## Task Recorded MIC E. coli ATCC 25922 for CC(C)C[C@@H]1NC(=O)[C@H](CCN)NC(=O)[C@H](CCN)NC(=O)[C@H](CC(C)C)NC(=O)[C@@H](Cc2ccccc2)NC(=O)[C@H](CCN)NC(=O)[C@@H](NC(=O)[C@@H](CCN)NC(=O)c2ccc(Oc3ccccc3)cc2)CCNC1=O [compound 6527] ({Benzoyl(4-OPh)}-[dDab][Dab][Dab][dF]L[Dab][Dab]L; lactam 2-C) , please?
## Result 2
